Molecular target: human EGFR exon 20 insertion ASV (V769_D770insASV) (Homo sapiens, UniProt P00533, INS769ASV)
Sequence (P00533 with tags, fused parts or gaps INS769ASV): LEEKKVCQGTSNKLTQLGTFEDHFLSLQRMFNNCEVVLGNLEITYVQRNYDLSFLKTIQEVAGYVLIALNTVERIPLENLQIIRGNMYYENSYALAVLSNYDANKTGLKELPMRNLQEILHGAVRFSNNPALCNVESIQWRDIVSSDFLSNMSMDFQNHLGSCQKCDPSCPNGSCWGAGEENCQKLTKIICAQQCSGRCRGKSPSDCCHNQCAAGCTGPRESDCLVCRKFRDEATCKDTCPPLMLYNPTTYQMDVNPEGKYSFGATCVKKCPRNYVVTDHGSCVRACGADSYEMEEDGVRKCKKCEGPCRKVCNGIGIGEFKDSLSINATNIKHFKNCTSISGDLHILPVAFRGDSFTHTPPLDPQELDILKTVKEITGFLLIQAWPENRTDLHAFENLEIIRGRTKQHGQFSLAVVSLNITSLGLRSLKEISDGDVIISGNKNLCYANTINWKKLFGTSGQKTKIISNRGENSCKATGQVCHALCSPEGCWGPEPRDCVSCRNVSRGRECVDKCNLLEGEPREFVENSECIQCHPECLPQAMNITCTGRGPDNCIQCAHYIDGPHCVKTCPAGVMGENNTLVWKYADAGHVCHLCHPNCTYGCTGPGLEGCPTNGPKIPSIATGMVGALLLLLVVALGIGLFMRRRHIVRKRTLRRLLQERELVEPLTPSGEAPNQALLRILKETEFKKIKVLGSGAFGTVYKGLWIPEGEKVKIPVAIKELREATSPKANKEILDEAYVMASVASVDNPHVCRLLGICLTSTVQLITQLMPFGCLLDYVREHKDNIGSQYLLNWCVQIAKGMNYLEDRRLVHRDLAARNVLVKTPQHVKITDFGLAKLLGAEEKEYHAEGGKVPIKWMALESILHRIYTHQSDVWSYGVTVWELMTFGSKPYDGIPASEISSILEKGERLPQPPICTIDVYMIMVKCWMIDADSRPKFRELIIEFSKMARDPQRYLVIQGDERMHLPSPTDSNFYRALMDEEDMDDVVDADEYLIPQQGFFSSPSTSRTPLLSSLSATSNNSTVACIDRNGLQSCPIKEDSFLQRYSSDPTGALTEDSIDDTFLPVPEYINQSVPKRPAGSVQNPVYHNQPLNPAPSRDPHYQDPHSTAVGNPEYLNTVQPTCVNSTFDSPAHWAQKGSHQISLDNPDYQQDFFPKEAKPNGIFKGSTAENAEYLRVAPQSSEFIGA
Assay: Ba/F3-EGFR-Exon20-ASV cell anti-proliferative assay (CellTiter 96 MTS, 72 h)
Conditions: Ba/F3-EGFR-Exon20-ASV cells
pIC50: −log10 of the molar value.
measurement.type: pIC50

Use the examples below as a reference point.
compound	result
C=CC(=O)Nc1cc(Nc2ncc(Cl)c(-c3cn4c5c(cccc35)OCC4)n2)c(OC)cc1N(C)CCN(C)C	> 7.00
C=CC(=O)Nc1cc(Nc2ncc(C#N)c(-c3cn4c5c(cccc35)N(C)CC4)n2)c(OC)cc1N(C)CCN(C)C	6.00 to 6.30
C=CC(=O)Nc1cc(Nc2ncc(C(=O)OCC)c(-c3cn4c5c(cccc35)CCC4)n2)c(OC)cc1N(C)CCN(C)C	> 7.00
C=CC(=O)Nc1cc(Nc2ncc(C(=O)NC)c(-c3nn4c5c(cccc35)OCC4)n2)c(OC)cc1N(C)CCN(C)C	< 6.00
C=CC(=O)Nc1cc(Nc2ncc(C(=O)OC)c(-c3nn4c5c(cccc35)OCC4)n2)c(OC)cc1N(C)CCN(C)C	> 7.00

Prompt line: May I ask what pIC50 has been recorded for C=CC(=O)Nc1cc(Nc2nccc(-c3c(-c4ncco4)n4c5c(cccc35)CCC4)n2)c(OC)cc1N(C)CCN(C)C ?
Response line: 6.30 to 7.00

Prompt line: I am curious: what pIC50 value has been reported for C=CC(=O)Nc1cc(Nc2nccc(-c3c(N4CCN(C)C(=O)C4)n4c5c(cccc35)CCC4)n2)c(OC)cc1N(C)CCN(C)C ?
Response line: 6.30 to 7.00

Prompt line: Please look up its pIC50: C=CC(=O)Nc1cc(Nc2ncc(-c3ncco3)c(-c3cn4c5c(cccc35)CCC4)n2)c(OC)cc1N(C)CCN(C)C
Response line: > 7.00

Prompt line: Quick one: pIC50 of C=CC(=O)Nc1cc(Nc2ncc(-c3ncccn3)c(-c3cn4c5c(cccc35)CCC4)n2)c(OC)cc1N(C)CCN(C)C ?
Response line: 6.30 to 7.00

Prompt line: May I ask what pIC50 has been recorded for C=CC(=O)Nc1cc(Nc2ncc(OCC(C)O)c(-c3cn4c5c(cccc35)CCC4)n2)c(OC)cc1N(C)CCN(C)C (stereo not shown) ?
Response line: > 7.00

====

Examples of compounds with documented IC50 follow.
Molecular target: human EGFR exon 20 insertion ASV (V769_D770insASV) (Homo sapiens, UniProt P00533, INS769ASV)
Assay: Ba/F3-EGFR-Exon20-ASV cell anti-proliferative assay (CellTiter 96 MTS, 72 h)
Conditions: Ba/F3-EGFR-Exon20-ASV cells

compound	IC50
C=CC(=O)Nc1cc(Nc2ncc(C#N)c(-c3cn4c5c(cccc35)N(C)C(=O)C4)n2)c(OC)cc1N(C)CCN(C)C	< 100 nM
C=CC(=O)Nc1cc(Nc2nccc(-c3c(N4CCC(O)C4)n4c5c(cccc35)CCC4)n2)c(OC)cc1N(C)CCN(C)C (centres unmarked)	< 100 nM
C=CC(=O)Nc1cc(Nc2nccc(-c3c(N4CCCC4)n4c5c(cccc35)CCC4)n2)c(OC)cc1N(C)CCN(C)C	< 100 nM

Prompt line: Suppose we examine the compound C=CC(=O)Nc1cc(Nc2ncc(-c3ncc[nH]3)c(-c3cn4c5c(cccc35)CCC4)n2)c(OC)cc1N(C)CCN(C)C ; what IC50 value has been reported?
Response line: 100 to 500 nM

Prompt line: Returns the measured IC50 for the input compound. Input: C=CC(=O)Nc1cc(Nc2ncc(N(C)CCO)c(-c3cn4c5c(cccc35)CCC4)n2)c(OC)cc1N(C)CCN(C)C
Response line: < 100 nM

Prompt line: Fill in the blank: the reported IC50 of C=CC(=O)Nc1cc(Nc2ncc(C(=O)CC)c(-c3cn4c5c(cccc35)CCC4)n2)c(OC)cc1N(C)CCN(C)C is ____.
Response line: < 100 nM

Prompt line: Dear colleague, I am looking for the recorded IC50 of the following compound: C=CC(=O)Nc1cc(Nc2ncc(C=C)c(-c3cn4c5c(cccc35)CCC4)n2)c(OC)cc1N(C)CCN(C)C
Response line: < 100 nM

Prompt line: Entry C=CC(=O)Nc1cc(Nc2ncc(-c3cnn(C)c3C)c(-c3cn4c5c(cccc35)CCC4)n2)c(OC)cc1N(C)CCN(C)C has what IC50?
Response line: < 100 nM

Prompt line: Could you tell me which IC50 is on file for C=CC(=O)Nc1cc(Nc2nccc(-c3cn4c5c(cccc35)CCC4)n2)c(OC)cc1N(C)CCN(C)C ?
Response line: 100 to 500 nM

Prompt line: Please look up its IC50: C=CC(=O)Nc1cc(Nc2ncc(OCC(F)F)c(-c3cn4c5c(cccc35)CCC4)n2)c(OC)cc1N(C)CCN(C)C
Response line: < 100 nM

Prompt line: Which IC50 value belongs to C=CC(=O)Nc1cc(Nc2ncc(CCC(N)=O)c(-c3cn4c5c(cccc35)CCC4)n2)c(OC)cc1N(C)CCN(C)C ?
Response line: 500 to 1000 nM

Origin of the recorded values: patent US20170166598A1
